Target: Paired box protein Pax-8 (Homo sapiens, UniProt Q06710)
Sequence (Q06710 whole entry): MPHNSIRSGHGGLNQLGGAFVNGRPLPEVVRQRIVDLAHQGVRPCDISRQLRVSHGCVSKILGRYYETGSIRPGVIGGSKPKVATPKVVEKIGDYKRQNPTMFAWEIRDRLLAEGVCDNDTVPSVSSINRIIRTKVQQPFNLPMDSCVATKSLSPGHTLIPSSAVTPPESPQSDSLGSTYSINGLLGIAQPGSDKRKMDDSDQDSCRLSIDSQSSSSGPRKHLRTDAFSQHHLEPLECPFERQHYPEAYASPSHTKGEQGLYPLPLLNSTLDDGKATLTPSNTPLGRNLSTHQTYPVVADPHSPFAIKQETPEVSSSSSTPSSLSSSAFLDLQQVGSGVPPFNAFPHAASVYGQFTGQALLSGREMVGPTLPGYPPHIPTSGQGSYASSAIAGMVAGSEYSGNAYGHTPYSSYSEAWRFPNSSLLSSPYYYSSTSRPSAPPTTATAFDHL
Assay: PAX8 transcriptional activity inhibition in RMG-I – RMG-I cells, luciferase, cherry-pick, dose response (AID 687027);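 note: luciferase reporter driven by Pax8 target thyroperoxidase promoter measured by SteadyGlo luminescence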
Type: functional, cell-based
Calls of active or inactive are those of the source.
readoutName: AC50

[Q] Provide one value: measured AC50 of Cl.N=c1n(Cc2ccccc2)c2ccccc2n1CC(O)COc1ccc(Cl)cc1Cl (stereo not given)
[A] 17.2 µM (active)

[Q] Provide one value: measured AC50 of O=C(Nc1cccc(F)c1)N1CCCCN2[C@H](CO)[C@@H](c3ccc(-c4ccccc4F)cc3)[C@H]2C1
[A] 10.2 µM (active)

[Q] Provide one value: measured AC50 of COc1ccc(OC)c(-c2nnc3n2N=C(c2ccc(OC)c(OC4CCOC4)c2)CS3)c1 (stereo not given)
[A] 2.71 µM (active)

[Q] Provide one value: measured AC50 of C[C@@H]1CN([C@H](C)CO)C(=O)c2cccc(NC(=O)Nc3cccc4ccccc34)c2O[C@H]1CN(C)C(=O)Nc1ccc(C(F)(F)F)cc1
[A] 14.6 µM (active)

[Q] Provide one value: measured AC50 of CCCN(CCC)Cc1c(C(=O)N/N=C/C(C)=C\c2ccco2)nnn1-c1nonc1N
[A] 2.86 µM (active)

====

Biological target: UniProt P34707
Sequence (P34707 whole entry): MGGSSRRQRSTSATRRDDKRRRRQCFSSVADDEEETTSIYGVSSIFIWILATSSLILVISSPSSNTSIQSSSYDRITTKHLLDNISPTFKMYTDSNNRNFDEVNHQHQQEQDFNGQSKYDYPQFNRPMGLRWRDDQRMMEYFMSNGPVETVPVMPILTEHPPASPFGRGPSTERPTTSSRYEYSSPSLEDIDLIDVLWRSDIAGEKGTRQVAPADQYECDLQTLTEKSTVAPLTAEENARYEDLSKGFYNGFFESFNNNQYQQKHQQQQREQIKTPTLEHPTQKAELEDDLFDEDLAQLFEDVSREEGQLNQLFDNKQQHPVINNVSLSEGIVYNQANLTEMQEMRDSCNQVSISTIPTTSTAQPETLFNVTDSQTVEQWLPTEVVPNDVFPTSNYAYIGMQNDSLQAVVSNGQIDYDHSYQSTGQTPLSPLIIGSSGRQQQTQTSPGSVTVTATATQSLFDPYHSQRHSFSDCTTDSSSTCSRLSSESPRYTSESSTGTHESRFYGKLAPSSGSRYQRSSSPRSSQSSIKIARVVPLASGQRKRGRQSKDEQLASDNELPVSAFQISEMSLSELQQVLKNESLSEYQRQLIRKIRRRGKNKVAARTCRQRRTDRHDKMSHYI
Type: functional
Calls of active or inactive are those of the source.
readoutName: IC50

[Q] Provide one value: measured IC50 of c1ccc(-c2noc(CSc3nc4ccccc4o3)n2)cc1
[A] 75.7 µM (inactive)

[Q] Provide one value: measured IC50 of CCCCOC(=O)c1ccc(NC(=O)/C=C/c2cccs2)cc1
[A] > 100 µM (inactive)

[Q] Provide one value: measured IC50 of Nc1ccc2nc(-c3ccccc3)sc2c1
[A] 55.9 µM (inactive)

[Q] Provide one value: measured IC50 of Fc1ccccc1CSc1ccc(-c2ccco2)nn1
[A] 64.6 µM (inactive)

[Q] Provide one value: measured IC50 of c1ccc(CSc2ccc(-c3ccco3)nn2)cc1
[A] > 100 µM (inactive)

====

So I've got a bunch of compounds here, and I need their EC50 values.
Assay: NIH3T3 cell viability loss – ATP luminescence, mouse fibroblasts, counter-screen, dose response (AID 2010);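 note: cells exposed to compound for about 90 hours before reading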
Type: functional, cell-based

[Q] Provide one value: measured EC50 of O=[N+]([O-])c1ccccc1/C=N/N1CCN(c2ccncc2S(=O)(=O)N2CCCCC2)CC1
[A] > 60 µM (not active)

[Q] Provide one value: measured EC50 of O=C(c1ccc(-c2ccccc2)cc1)C1CCCN(Cc2ccncc2)C1 (stereo not given)
[A] > 60 µM (not active)

[Q] Provide one value: measured EC50 of COC(=O)c1ccc(CN2CCCC(CCC(=O)NCc3ccc(C)o3)C2)cc1 (stereo not given)
[A] > 60 µM (not active)

[Q] Provide one value: measured EC50 of CCOc1ccccc1C(=O)N[C@H](C(=O)Nc1nc2c(s1)CCCC2)C(C)C
[A] > 60 µM (inconclusive)

[Q] Provide one value: measured EC50 of Cc1ccc2sc(N(CCCN(C)C)C(=O)CN3C(=O)c4ccccc4C3=O)nc2c1C
[A] > 60 µM (not active)

====

Molecular target: Polyadenylate-binding protein 1 (Homo sapiens)
Sequence (P11940 whole entry): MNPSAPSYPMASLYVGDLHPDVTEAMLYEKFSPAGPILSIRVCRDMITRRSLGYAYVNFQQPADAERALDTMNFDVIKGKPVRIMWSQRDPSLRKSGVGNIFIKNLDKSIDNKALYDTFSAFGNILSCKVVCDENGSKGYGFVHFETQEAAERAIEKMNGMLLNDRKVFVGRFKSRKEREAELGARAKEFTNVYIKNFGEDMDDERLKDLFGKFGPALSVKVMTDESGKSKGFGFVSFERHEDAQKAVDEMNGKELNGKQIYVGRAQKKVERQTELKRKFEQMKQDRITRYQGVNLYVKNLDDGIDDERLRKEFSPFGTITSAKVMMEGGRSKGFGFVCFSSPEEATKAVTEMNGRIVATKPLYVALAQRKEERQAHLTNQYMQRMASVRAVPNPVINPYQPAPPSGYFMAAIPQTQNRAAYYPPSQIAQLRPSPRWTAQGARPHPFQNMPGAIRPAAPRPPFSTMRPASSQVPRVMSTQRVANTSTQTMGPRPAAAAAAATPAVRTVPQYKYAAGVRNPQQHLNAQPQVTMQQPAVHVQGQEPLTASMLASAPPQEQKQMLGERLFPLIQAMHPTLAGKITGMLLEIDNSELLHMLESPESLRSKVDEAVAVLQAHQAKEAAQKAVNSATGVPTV
Experiment: MLLE binding blockers, Cy5 peptide tracer – biochemical, fluorescence polarization, Cy5-PAM2 peptide, secondary, miRNA deadenylation inhibitor project, dose response (AID 602260)
Format: functional
Conditions: read-out: IC50_Mean
Activity calls are given as the source filed them.
So I've got a bunch of molecules here, and I need their IC50 values.

[Q] Provide one value: measured IC50 of O=C(NC1=NCCS1)c1csc2ccccc12
[A] > 66 µM (inactive)

[Q] Provide one value: measured IC50 of CN1C(=O)/C(=C2/C=CC=CN2C)OC1=S
[A] > 66 µM (inactive)

[Q] Provide one value: measured IC50 of O=C(CSc1c[nH]nn1)Nc1ccc(O)c(C(=O)O)c1
[A] > 66 µM (inactive)
